Target Or Test System: Mu-type opioid receptor (Homo sapiens, UniProt P35372)
Sequence (P35372 whole entry): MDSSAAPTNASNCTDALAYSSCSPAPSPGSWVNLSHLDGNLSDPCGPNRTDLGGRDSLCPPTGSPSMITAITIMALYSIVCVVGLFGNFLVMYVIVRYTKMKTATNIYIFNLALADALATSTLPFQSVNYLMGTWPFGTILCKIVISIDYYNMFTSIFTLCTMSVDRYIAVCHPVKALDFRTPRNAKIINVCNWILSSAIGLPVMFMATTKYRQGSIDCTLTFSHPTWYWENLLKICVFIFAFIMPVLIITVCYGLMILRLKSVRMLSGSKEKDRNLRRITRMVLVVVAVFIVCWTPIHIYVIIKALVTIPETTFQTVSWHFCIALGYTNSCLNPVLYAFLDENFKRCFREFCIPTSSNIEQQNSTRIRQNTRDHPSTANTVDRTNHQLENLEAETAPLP
Protocol: Agonist activity at human mu opioid receptor expressed in CHO cells assessed as [35S]GTPgammaS binding by scintillation counting analysis relative to DAMGO
Assay type: functional, cell-based
Observable: Emax (%)
Answers are plain numbers, in %.

These solved cases illustrate the format of a correct answer.
• Oc1ccc2c3c1O[C@H]1c4ncc(-c5ccc(Cl)cc5)cc4C[C@@]4(OCCCc5ccccc5)[C@@H](C2)N(CC2CC2)CC[C@]314 = 72
• CN1CC[C@]23c4c5ccc(O)c4O[C@H]2c2ncc(-c4ccc(Cl)cc4)cc2C[C@@]3(OC(=O)c2ccccc2)[C@H]1C5 = 55
• CN1CC[C@]23c4c5ccc(O)c4O[C@H]2c2ncc(-c4ccc(Cl)cc4)cc2C[C@@]3(OCCCc2ccccc2)[C@H]1C5 = 125
• CN1CC[C@]23c4c5ccc(O)c4O[C@H]2c2ncc(-c4ccc(Cl)cc4)cc2C[C@@]3(OC/C=C/c2ccccc2)[C@H]1C5 = 130
• CN1CC[C@]23c4c5ccc(O)c4O[C@H]2c2ncc(-c4ccc(Cl)cc4)cc2C[C@@]3(OC(=O)Cc2ccccc2)[C@H]1C5 = 122
• CO[C@@]12Cc3cc(-c4ccc(Cl)cc4)cnc3[C@@H]3Oc4c(O)ccc5c4[C@@]31CCN(C)[C@@H]2C5 = 118
• CN1CC[C@]23c4c5ccc(O)c4O[C@H]2c2ncc(-c4ccc(Cl)cc4)cc2C[C@@]3(OCc2ccccc2)[C@H]1C5 = 119

Consider the additional molecule presented here.
Retrieve Emax measured for "CN1CC[C@]23c4c5ccc(O)c4O[C@H]2c2ncc(-c4ccc(Cl)cc4)cc2C[C@@]3(OC(=O)CCc2ccccc2)[C@H]1C5" and print it. 105

* * *

Target Or Test System: Kappa-type opioid receptor (Homo sapiens, UniProt P41145)
Sequence (P41145 whole entry): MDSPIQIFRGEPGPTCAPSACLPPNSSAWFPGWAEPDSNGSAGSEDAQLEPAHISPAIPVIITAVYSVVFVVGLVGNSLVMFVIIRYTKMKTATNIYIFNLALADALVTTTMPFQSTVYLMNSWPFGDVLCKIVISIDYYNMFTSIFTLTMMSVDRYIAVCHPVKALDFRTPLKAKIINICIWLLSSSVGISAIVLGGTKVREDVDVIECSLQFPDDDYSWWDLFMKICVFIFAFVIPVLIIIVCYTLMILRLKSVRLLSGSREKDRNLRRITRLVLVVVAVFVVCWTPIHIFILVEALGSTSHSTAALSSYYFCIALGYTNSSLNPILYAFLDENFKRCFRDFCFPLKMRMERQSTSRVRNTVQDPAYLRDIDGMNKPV
Protocol: Agonist activity at human kappa opioid receptor expressed in CHO cells assessed as [35S]GTPgammaS binding by scintillation counting analysis relative to U69,593
Format: functional, cell-based
Observable: Emax

- CN1CC[C@]23c4c5ccc(O)c4O[C@H]2c2ncc(-c4ccc(Cl)cc4)cc2C[C@@]3(OCc2ccccc2)[C@H]1C5: 32%

I have 6 compounds here; please give me Emax for each one.
1. CN1CC[C@]23c4c5ccc(O)c4O[C@H]2c2ncc(-c4ccc(Cl)cc4)cc2C[C@@]3(OC(=O)CCc2ccccc2)[C@H]1C5
2. O=C(CCc1ccccc1)O[C@@]12Cc3cc(-c4ccc(Cl)cc4)cnc3[C@@H]3Oc4c(O)ccc5c4[C@@]31CCN(CC1CC1)[C@@H]2C5
3. O=C(Cc1ccccc1)O[C@@]12Cc3cc(-c4ccc(Cl)cc4)cnc3[C@@H]3Oc4c(O)ccc5c4[C@@]31CCN(CC1CC1)[C@@H]2C5
4. CN1CC[C@]23c4c5ccc(O)c4O[C@H]2c2ncc(-c4ccc(Cl)cc4)cc2C[C@@]3(OC(=O)Cc2ccccc2)[C@H]1C5
5. CO[C@@]12Cc3cc(-c4ccc(Cl)cc4)cnc3[C@@H]3Oc4c(O)ccc5c4[C@@]31CCN(C)[C@@H]2C5
6. Oc1ccc2c3c1O[C@H]1c4ncc(-c5ccc(Cl)cc5)cc4C[C@@]4(OCc5ccccc5)[C@@H](C2)N(CC2CC2)CC[C@]314

1. 16%
2. 25%
3. 34%
4. 36%
5. 36%
6. 15%

* * *

Target Or Test System: Mu-type opioid receptor (Homo sapiens, UniProt P35372)
Protocol: Agonist activity at human mu opioid receptor expressed in CHO cells assessed as [35S]GTPgammaS binding by scintillation counting analysis
Observable: pEC50
One number for each entry, as −log10 of the molar value.

I have 3 compounds here; please give me pEC50 for each one.
1. CN1CC[C@]23c4c5ccc(O)c4O[C@H]2c2ncc(-c4ccc(Cl)cc4)cc2C[C@@]3(OC/C=C/c2ccccc2)[C@H]1C5
2. CN1CC[C@]23c4c5ccc(O)c4O[C@H]2c2ncc(-c4ccc(Cl)cc4)cc2C[C@@]3(OC(=O)CCc2ccccc2)[C@H]1C5
3. CN1CC[C@]23c4c5ccc(O)c4O[C@H]2c2ncc(-c4ccc(Cl)cc4)cc2C[C@@]3(OC(=O)c2ccccc2)[C@H]1C5

[8.37, 7.32, 5.34]

I have 4 compounds here; please give me pEC50 for each one.
1. CN1CC[C@]23c4c5ccc(O)c4O[C@H]2c2ncc(-c4ccc(Cl)cc4)cc2C[C@@]3(OCc2ccccc2)[C@H]1C5
2. CN1CC[C@]23c4c5ccc(O)c4O[C@H]2c2ncc(-c4ccc(Cl)cc4)cc2C[C@@]3(OCCCc2ccccc2)[C@H]1C5
3. CO[C@@]12Cc3cc(-c4ccc(Cl)cc4)cnc3[C@@H]3Oc4c(O)ccc5c4[C@@]31CCN(C)[C@@H]2C5
4. CN1CC[C@]23c4c5ccc(O)c4O[C@H]2c2ncc(-c4ccc(Cl)cc4)cc2C[C@@]3(OC(=O)Cc2ccccc2)[C@H]1C5

1: 6.52; 2: 8.67; 3: 6.42; 4: 7.06

Where do the numbers come from? From ChEMBL document CHEMBL2177065.
